Ref: patent US20260132208A1

Parameter residual hCCL1 (100 nM) Gi2 response, protocol #3, mAb 0.05 µg/mL: see the listing below.
- System: human CCR8 (human, UniProt P51685 1-355)
- Assay Text: cell-based or functional assay
Your answer is read as %, so omit the unit and give the number.

Below, 2 binders whose answers are already recorded.
The recorded residual hCCL1 (100 nM) Gi2 response, protocol #3, mAb 0.05 µg/mL for entry anti-CCR8 mAb 1-15 (antibody, V domains shown, Murine hybridoma mAb) VH: EVQLQQSGPELVKPGASVKISCKTSGYTFTEYTMHWVKQSHGKSLEWIGGINPNNGDTNYNQKFMGKATLTVDKSSSTAYMELRSLTSEDSAVYYCVRRLLRRGAMDYWGQGTSVTVSS VL: DIVLTQSPASLAVSLGQRATISCRASENVEYYGTSLMQWFQQKPGQPPKLLIYAASNVDSGVPARFSGSGSGTDFSLNIHPVEEDDIAMYFCQQSRKVPWTFGGGTKLDIK equals 102

The recorded residual hCCL1 (100 nM) Gi2 response, protocol #3, mAb 0.05 µg/mL for entry anti-CCR8 mAb 1-10 (antibody, V domains shown, Murine hybridoma mAb) VH: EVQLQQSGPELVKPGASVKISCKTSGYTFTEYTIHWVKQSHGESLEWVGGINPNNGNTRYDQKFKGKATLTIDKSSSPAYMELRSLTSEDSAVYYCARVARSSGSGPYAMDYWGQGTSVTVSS VL: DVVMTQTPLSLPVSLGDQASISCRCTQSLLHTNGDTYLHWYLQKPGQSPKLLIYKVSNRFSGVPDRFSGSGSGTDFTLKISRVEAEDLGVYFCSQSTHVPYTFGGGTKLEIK equals 80

Turning now to a further record.
The recorded residual hCCL1 (100 nM) Gi2 response, protocol #3, mAb 0.05 µg/mL for entry anti-CCR8 mAb 1-6 (antibody, V domains shown, Murine hybridoma mAb) VH: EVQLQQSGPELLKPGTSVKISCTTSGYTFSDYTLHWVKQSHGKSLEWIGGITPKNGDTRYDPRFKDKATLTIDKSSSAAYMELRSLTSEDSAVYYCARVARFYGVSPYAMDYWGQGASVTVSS VL: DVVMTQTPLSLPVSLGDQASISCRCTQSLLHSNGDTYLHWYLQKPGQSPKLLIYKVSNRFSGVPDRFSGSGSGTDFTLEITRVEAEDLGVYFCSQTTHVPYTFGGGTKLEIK equals 102
